This collection of values is drawn from patent US20240270821A1.

Below, each entry is listed with its recorded pEC50.
molecular target: hGLP-1R (Homo sapiens); experiment: Functional cAMP activity in the presence of 1% HSA; format: cell-based; details: read-out: cAMP Rel EC50, hGLP-1R
Sequence (P43220 24-463): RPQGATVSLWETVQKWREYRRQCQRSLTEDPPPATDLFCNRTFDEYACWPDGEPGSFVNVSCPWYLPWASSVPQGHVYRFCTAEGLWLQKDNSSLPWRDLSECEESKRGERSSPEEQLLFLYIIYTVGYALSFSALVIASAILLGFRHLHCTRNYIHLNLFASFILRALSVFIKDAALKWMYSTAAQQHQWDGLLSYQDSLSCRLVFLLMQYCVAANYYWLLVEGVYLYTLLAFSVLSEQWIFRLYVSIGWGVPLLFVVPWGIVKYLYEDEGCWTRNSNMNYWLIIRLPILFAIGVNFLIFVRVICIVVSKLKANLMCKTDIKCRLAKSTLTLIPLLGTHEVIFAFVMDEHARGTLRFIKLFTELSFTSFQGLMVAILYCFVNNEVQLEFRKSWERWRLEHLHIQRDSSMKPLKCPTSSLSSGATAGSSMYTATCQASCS
Starred links: 1 amine or outer side, 2 acyl side, 3 side chain; linkers in the order of their positions; H or OH if unused. Non-standard residues stand in square brackets, D forms with d. Groups on a side chain read outwards from the residue. *: point of attachment. C20 diacid = O=C(O)CCCCCCCCCCCCCCCCCCC(=O)*; C18 diacid = O=C(O)CCCCCCCCCCCCCCCCC(=O)*; αMePhe(2-F) = C[C@](N)(Cc1ccccc1F)C(=O)O; γGlu = O=C(O)[C@H](CCC(=O)[*:2])N[*:1]; αMe4Pal = C[C@](N)(Cc1ccncc1)C(=O)O; αMeY = C[C@](N)(Cc1ccc(O)cc1)C(=O)O; 4Pal = N[C@@H](Cc1ccncc1)C(=O)O; αMeL = CC(C)C[C@](C)(N)C(=O)O; αMeS = C[C@](N)(CO)C(=O)O; Orn = NCCC[C@H](N)C(=O)O; AEEA = NCCOCCOCC(=O)O; Aib = CC(C)(N)C(=O)O
# log scale: pEC50 equals minus log10 of the concentration in mol/L

Would you please look over these solved cases?
Enquiry: Data request, read-out pEC50, for H-Y[Aib]QGT[αMePhe(2-F)]TSD[4Pal]SI[αMeL]LD[Orn]K([AEEA-γGlu-C18 diacid])AQ[αMe4Pal][Orn]FIE[αMeY]LIEGGPSSGEPPPEGT-NH2 [Example 505]
Return: 7.41

Enquiry: Returns the measured pEC50 for the input substance. Input: H-Y[Aib]QGTFTSDFSK[αMeL]LDKK([AEEA-γGlu-C18 diacid])AQ[Aib]AFIEYLIE[Aib]SPSSGAPPPSGS-NH2 [Example 805]
Return: 6.84

Enquiry: Entry under review: H-Y[Aib]QGT[αMePhe(2-F)]TSD[4Pal]SILLD[Orn]K([γGlu-γGlu-C18 diacid])AQ[αMe4Pal][Orn]FI[dE]YLIEGGPSSGEPPPSGTEE-NH2 [Example 584] . Reported pEC50?
Return: 6.86

New cases:
Enquiry: Fill in: pEC50 of H-Y[Aib]QGT[αMePhe(2-F)]TSD[4Pal]SI[αMeL]LDKK([γGlu-γGlu-C18 diacid])AQ[Aib]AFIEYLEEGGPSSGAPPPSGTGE-NH2 [Example 622] is ___
Return: 7.28

Enquiry: What pEC50 value was documented for this substance, H-Y[Aib]QGT[αMePhe(2-F)]TSD[4Pal][αMeS]I[αMeL]LD[Orn]K([AEEA-γGlu-C18 diacid])AQ[αMe4Pal]EFI[dE][αMeY]LIEGGPSSGEPPPEGE-NH2 [Example 1149] ?
Return: 7.28

Enquiry: For H-Y[Aib]QGT[αMePhe(2-F)]TSDYSILLDKAAQK([AEEA-γGlu-C20 diacid])[Orn]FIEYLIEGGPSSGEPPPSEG-NH2 [Example 306] , what is its reported pEC50?
Return: 6.90

Enquiry: Which pEC50 value belongs to H-Y[Aib]QGTFTSDFS[Orn][αMeL]LDKK([γGlu-γGlu-γGlu-C18 diacid])AQ[Aib]AFIEYLLE[Aib]GPSSGAPPPSGS-NH2 [Example 202] ?
Return: 6.42
